# System: ECV-304 (endothelial)
# assay conditions: ECV-304 cells; peptide 100 nM; 48 hours; NA = Not Active
Starred links: 1 amine or outer side, 2 acyl side, 3 side chain; linkers in the order of their positions; H or OH if unused. Non-standard residues stand in square brackets, D forms with d. Residues, ends and D or L forms follow the SMILES beside them. 2Furoyl(5-aminomethyl) = O=C(c1ccc(CN[*:1])o1)[*:2]; X2 = O=C([C@@H]1CC[C@H](CN[*:1])O1)[*:2]
test readout: Percent Cytotoxicity (%)
Answers are plain numbers, in %.

// batch mode: one Percent Cytotoxicity value per listed entry
1. CSCC[C@H](N)C(=O)NCc1ccc(C(=O)N[C@@H](Cc2ccc(O)cc2)C(=O)N[C@@H](CC(C)C)C(=O)O)o1 [SEQ ID NO: 14, Met-Saa1-Tyr-Leu]
2. CSCC[C@H](NC(=O)[C@@H](N)CC(C)C)C(=O)N[C@@H](Cc1ccc(O)cc1)C(=O)NCc1ccc(C(=O)N[C@@H](Cc2ccc(O)cc2)C(=O)N[C@@H](CC(C)C)C(=O)N[C@@H](CCCCN)C(=O)O)o1 [SEQ ID NO: 10, Leu-Met-Tyr-Saa1-Tyr-Leu-Lys] (H-LMY[2Furoyl(5-aminomethyl)]YLK-OH)
3. CSCC[C@H](NC(=O)[C@@H](N)CC(C)C)C(=O)NC[C@H]1CC[C@@H](C(=O)N[C@H](C(=O)N[C@@H](Cc2ccc(O)cc2)C(=O)N[C@@H](CC(C)C)C(=O)N[C@@H](CCCCN)C(=O)O)[C@@H](C)O)O1 [SEQ ID NO: 9, Leu-Met-Saa4-Thr-Tyr-Leu-Lys] (H-LM[X2]TYLK-OH)
4. CSCC[C@H](N)C(=O)NC[C@H]1CC[C@@H](C(=O)N[C@@H](Cc2ccc(O)cc2)C(=O)N[C@@H](CC(C)C)C(=O)O)O1 [SEQ ID NO: 17, Met-Saa4-Tyr-Leu]

1. 6.0
2. 9.4
3. 10.4
4. 11.9

The reported numbers originate from patent US7060678B2.
